- Read-out: Tumor necrosis factor receptor superfamily member 6 (Homo sapiens)
- protocol-details: LTEA_HepaRG_FAS: Life Technologies and Expression Analysis (LTEA) Assay for Fas cell surface death receptor (FAS) using HepaRG (AID 2283447)
- condition-summary: mRNA level, 48 h; actives raise or lower the signal
Active and inactive are the calls of the source. Rule for the calls: active = hit-call score of the fitted dose curve at least 0.9, where 1 is the maximum; inactive = score below 0.9.
Mark one answer only. Choices: active, inactive

A selection of reference data follows.
CC(C)N(C(=O)SCC(Cl)=C(Cl)Cl)C(C)C | inactive
CCCOc1nn(C(=O)NS(=O)(=O)c2ccccc2C(=O)OC)c(=O)n1C | inactive
C#CCC1=C(C)C(OC(=O)C2C(C=C(C)C)C2(C)C)CC1=O (stereo not drawn) | inactive
COP(=O)(OC)C(O)C(Cl)(Cl)Cl (stereo not drawn) | inactive
CCc1cnc(C2=NC(C)(C(C)C)C(=O)N2)c(C(=O)O)c1 (stereo not drawn) | inactive
C=C(C)[C@H]1Cc2c(ccc3c2O[C@@H]2COc4cc(OC)c(OC)cc4[C@@H]2C3=O)O1 | active
CN(C)[C@@H]1C(=O)C(C(N)=O)=C(O)[C@@]2(O)C(=O)C3=C(O)c4c(O)cccc4[C@@](C)(O)[C@H]3[C@H](O)[C@@H]12 | inactive

QUERY: Could you check what this test reported for CNC(=O)Oc1cccc2c1OC(C)(C)O2 ?
RESULT: inactive
